The reported measurements were obtained from ChEMBL document CHEMBL2218924.

# testedOn: PAS domain-containing serine/threonine-protein kinase (Homo sapiens)
# conditionSummary: at 1 µM
resultType: residual activity (%)
State just the number; it will be interpreted in %.

O=S(=O)(c1cccc2cnccc12)N1CCCNCC1 | 83
CC(C)[C@H](CO)Nc1nc(Nc2cccc(Cl)c2)c2ncn(C(C)C)c2n1 | 135
O=c1cc(N2CCNCC2)oc2c(-c3ccccc3)cccc12 | 148

# input Need residual activity, item "CC(C)(C)c1cc(C=C(C#N)C#N)cc(Br)c1O"
# output 80

# input Need residual activity, item "CN(C)CCCn1cc(C2=C(c3c[nH]c4ccccc34)C(=O)NC2=O)c2ccccc21"
# output 74

====

# testedOn: Testis-specific serine/threonine-protein kinase 2 (Homo sapiens)
# conditionSummary: at 1 µM
Answer f if residual activity is under 90%, and t if it is 90% or more.

Solved cases below.
O=C1c2ccccc2-[n+]2ccc3c([nH]c4ccccc43)c21 | t
Cc1nc(-c2ccccc2)c(-c2ccncc2)o1 | t
CO[C@@H]1[C@H](N(C)C(=O)c2ccccc2)C[C@H]2O[C@]1(C)n1c3ccccc3c3c4c(c5c6ccccc6n2c5c31)C(=O)NC4 | f

# input Check the entry "COc1cc2nccc(Oc3ccc(NC(=S)NC(=O)c4ccccc4C)cc3)c2cc1OC" : does residual activity equal or exceed 90%?
# output t

# input Check the entry "C[C@@H](N)[C@H]1CC[C@H](C(=O)Nc2ccncc2)CC1" : does residual activity equal or exceed 90%?
# output t

# input Check the entry "Cc1cccc(-c2[nH]c(C(C)(C)C)nc2-c2ccc3c(c2)OCO3)n1" : does residual activity equal or exceed 90%?
# output t

# input Check the entry "CCN(CC)C(=O)c1ccc(Nc2nc(OCC3CCCCC3)c3nc[nH]c3n2)cc1" : does residual activity equal or exceed 90%?
# output f

# input Check the entry "Cn1cc(/C=C2\C(=O)Nc3ccc(S(N)(=O)=O)cc32)c2ccccc21" : does residual activity equal or exceed 90%?
# output f

# input Check the entry "O=c1cc(-c2cccc3c2Sc2ccccc2S3)oc(N2CCOCC2)c1" : does residual activity equal or exceed 90%?
# output t

# input Check the entry "COC(=O)[C@@]1(O)C[C@H]2O[C@]1(C)n1c3ccccc3c3c4c(c5c6ccccc6n2c5c31)C(=O)NC4" : does residual activity equal or exceed 90%?
# output f

# input Check the entry "Cc1ccc(NC2=CC(=O)c3sc(C)nc3C2=O)cc1" : does residual activity equal or exceed 90%?
# output t

====

Listing of recorded residual activity by entry.
# testedOn: Serine/threonine-protein kinase MRCK beta (Homo sapiens) (UniProt Q9Y5S2)
# Sequence (Q9Y5S2 whole entry): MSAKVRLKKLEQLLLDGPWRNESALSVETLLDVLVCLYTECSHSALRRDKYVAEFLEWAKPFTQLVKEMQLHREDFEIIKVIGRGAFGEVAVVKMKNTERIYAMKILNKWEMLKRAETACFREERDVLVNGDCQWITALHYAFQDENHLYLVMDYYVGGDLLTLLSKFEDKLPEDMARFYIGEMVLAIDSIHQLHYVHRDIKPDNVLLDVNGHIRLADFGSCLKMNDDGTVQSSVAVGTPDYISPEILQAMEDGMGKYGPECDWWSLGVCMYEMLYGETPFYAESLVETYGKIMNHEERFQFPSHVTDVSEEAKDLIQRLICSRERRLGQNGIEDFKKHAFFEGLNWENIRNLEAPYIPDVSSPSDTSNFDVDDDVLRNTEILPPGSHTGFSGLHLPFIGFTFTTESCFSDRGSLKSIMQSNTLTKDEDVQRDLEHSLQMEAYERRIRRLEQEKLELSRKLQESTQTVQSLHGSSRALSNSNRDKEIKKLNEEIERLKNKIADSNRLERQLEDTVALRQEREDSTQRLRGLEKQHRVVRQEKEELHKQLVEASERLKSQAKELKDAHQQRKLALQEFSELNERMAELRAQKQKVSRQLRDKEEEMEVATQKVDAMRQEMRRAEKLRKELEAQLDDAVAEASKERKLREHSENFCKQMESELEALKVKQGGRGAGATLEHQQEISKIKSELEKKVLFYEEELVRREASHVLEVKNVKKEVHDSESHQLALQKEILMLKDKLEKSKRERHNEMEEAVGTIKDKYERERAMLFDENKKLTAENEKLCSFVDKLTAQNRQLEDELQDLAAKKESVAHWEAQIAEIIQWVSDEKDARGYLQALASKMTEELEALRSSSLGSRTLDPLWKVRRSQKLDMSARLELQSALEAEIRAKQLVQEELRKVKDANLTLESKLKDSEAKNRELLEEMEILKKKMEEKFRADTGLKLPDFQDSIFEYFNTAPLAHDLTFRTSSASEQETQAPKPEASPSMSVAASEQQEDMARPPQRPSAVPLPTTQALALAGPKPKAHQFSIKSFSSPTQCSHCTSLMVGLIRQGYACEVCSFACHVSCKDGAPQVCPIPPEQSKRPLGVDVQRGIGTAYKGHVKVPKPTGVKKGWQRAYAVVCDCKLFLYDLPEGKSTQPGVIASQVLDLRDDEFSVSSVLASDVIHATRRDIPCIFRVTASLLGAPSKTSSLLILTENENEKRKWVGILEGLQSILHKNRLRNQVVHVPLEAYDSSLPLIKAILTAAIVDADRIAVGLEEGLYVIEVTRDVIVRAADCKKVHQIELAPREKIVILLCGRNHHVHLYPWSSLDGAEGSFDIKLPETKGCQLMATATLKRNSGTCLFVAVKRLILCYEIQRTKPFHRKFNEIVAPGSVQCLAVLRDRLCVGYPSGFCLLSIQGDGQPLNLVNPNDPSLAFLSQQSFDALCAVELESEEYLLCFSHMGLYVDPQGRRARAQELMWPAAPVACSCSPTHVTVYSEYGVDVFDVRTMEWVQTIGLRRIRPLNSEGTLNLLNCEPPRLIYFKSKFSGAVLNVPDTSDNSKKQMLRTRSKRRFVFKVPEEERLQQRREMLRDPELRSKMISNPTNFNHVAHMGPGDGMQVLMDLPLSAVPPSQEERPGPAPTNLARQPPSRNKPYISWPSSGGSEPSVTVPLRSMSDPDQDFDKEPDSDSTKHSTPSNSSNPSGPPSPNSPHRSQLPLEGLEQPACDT
# conditionSummary: at 10 µM
Just so you know, I need the unit written after the number.

Use these answered entries as a reference point.
CC(C)[C@H](CO)Nc1nc(Nc2cccc(Cl)c2)c2ncn(C(C)C)c2n1 | 88%
O=c1[nH]c2ccccc2n1C1CCN(Cc2ccc(-c3nc4cc5[nH]cnc5cc4nc3-c3ccccc3)cc2)CC1 | 82%
O=C1Nc2ccc3ncsc3c2/C1=C/c1c[nH]cn1 | 49%
COC(=O)[C@@]1(O)C[C@H]2O[C@]1(C)n1c3ccccc3c3c4c(c5c6ccccc6n2c5c31)C(=O)NC4 | 5%

# input Need residual activity, item "CCn1cnc2c(Nc3cccc(Cl)c3)nc(N[C@@H]3CCCC[C@@H]3N)nc21"
# output 78%

# input Need residual activity, item "COc1cc2ncnc(Nc3ccc(OCc4ccccc4)cc3)c2cc1OC"
# output 95%

# input Need residual activity, item C[S+]([O-])c1ccc(-c2nc(-c3ccc(F)cc3)c(-c3ccncc3)[nH]2)cc1 (stereo not drawn)
# output 110%

# input Need residual activity, item "COc1cc(OC)c(/C=C2\C(=O)Nc3ccccc32)c(OC)c1"
# output 84%
